meta.source: PubChem BioAssay (EPA / NIEHS)

# EXPERIMENTAL_PROTOCOL: Tanguay_ZF_120hpf_CFIN_legacy: (Legacy) Oregon State University Tanguay Lab 120 Hour Post-fertilization zebrafish Assay for Caudal Fin Malformation (AID 2283649)
Results filed as inconclusive are left out. Active and inactive are the calls of the source. How the source made its calls: active means hit-call score of the fitted dose curve at least 0.9, where 1 is the maximum; inconclusive means response in the unintended direction; inactive means score below 0.9.
The categories you may choose from are true (active), false (inactive)

Observe how each entry below is paired with its result.
COMPOUND	ASSIGNED_CATEGORY
CN(C)[C@@H]1C(=O)C(C(N)=O)=C(O)[C@@]2(O)C(=O)C3=C(O)c4c(O)cccc4[C@@](C)(O)[C@H]3[C@H](O)[C@@H]12	false
CCOP(=O)(NC(C)C)Oc1ccc(SC)c(C)c1 (configuration not stated)	false
CCCCOC(=O)[C@@H](C)Oc1ccc(Oc2ccc(C#N)cc2F)cc1	false
CCCSP(=O)(OCC)SCCC	false
CCc1cccc(C)c1N(C(=O)CCl)C(C)COC (configuration not stated)	false

Then there is this compound:
Ask: Recorded call for COP(=O)(OC)C(O)C(Cl)(Cl)Cl (configuration not stated) ?
Result: false

* * *

# EXPERIMENTAL_PROTOCOL: ATG_NF_kB_CIS: Attagene CIS-FACTORIAL HepG2 Assay for human Nuclear Factor Kappa B (NF-kB) (AID 2282991)
# TEST_PARAMETERS: HepG2 Attagene cis-factorial NF-kB reporter mRNA; actives raise or lower the signal
Active and inactive are the calls of the source. How the source made its calls: active means hit-call score of the fitted dose curve at least 0.9, where 1 is the maximum; inactive means score below 0.9.
Hello, when you answer, please use one of the following outcomes: active, inactive

Before answering, review these 10 worked examples.
COMPOUND	ASSIGNED_CATEGORY
CC(=NC#N)N(C)Cc1ccc(Cl)nc1	inactive
CC(C)N(C(=O)SCC(Cl)=C(Cl)Cl)C(C)C	inactive
CC1=NNC(=O)N(/N=C/c2cccnc2)C1	inactive
CC(COc1ccc(Oc2ccccc2)cc1)Oc1ccccn1 (stereo not given)	active
C#CC(C)(C)NC(=O)c1cc(Cl)cc(Cl)c1	inactive
CN(C)C(=O)Nc1cccc(C(F)(F)F)c1	inactive
CCOC(=O)CC(SP(=O)(OC)OC)C(=O)OCC (stereo not given)	inactive
COc1cc(OC)nc(Sc2cccc(Cl)c2C(=O)O)n1	inactive
CCOP(=S)(OCC)Oc1ccc([N+](=O)[O-])cc1	inactive
Nc1c(Cl)cc([N+](=O)[O-])cc1Cl	active

Ask: Assay result, entry CCC(=NOC/C=C/Cl)C1=C(O)CC(C2CCOCC2)CC1=O (stereo not given) — outcome?
Result: inactive

Ask: Test call for this compound, please: CCOP(=S)(OCC)SCCSCC
Result: inactive

Ask: Tell me the recorded outcome of this test for CCCCOC(=O)[C@@H](C)Oc1ccc(Oc2ccc(C#N)cc2F)cc1 .
Result: inactive

Ask: State the result this test recorded for CNC(=O)ON=C(C)SC .
Result: inactive

Ask: # lookup: test call for CCOP(=O)(NC(C)C)Oc1ccc(SC)c(C)c1 (stereo not given)
Result: inactive

* * *

# Read-out: Intercellular Adhesion Molecule 1 (ICAM1), ICAM1 (gene 3383)
# EXPERIMENTAL_PROTOCOL: BSK_KF3CT_ICAM1: BioMAP Diversity Plus: KF3CT Assay for Intercellular Adhesion Molecule 1 (ICAM1) Biomarker Activity (AID 2283067)
# TEST_PARAMETERS: primary human keratinocytes with fibroblasts; actives raise or lower the signal
# Description: BSK_KF3CT is a cell-based, multiplexed-readout assay that uses keratinocytes and foreskin fibroblasts, a human skin primary cell co-culture, with measurements taken at 24 hours after chemical dosing in a 96-well plate.BSK_KF3CT_ICAM1 is an assay component measured in the BSK_KF3CT assay. It measures ICAM-1 antibody related to regulation of gene expression using ELISA technology.Data from the assay component BSK_KF3CT_ICAM1 was analyzed into 1 assay endpoint. […]
Activity calls are given as the source filed them. How the source made its calls: active means hit-call score of the fitted dose curve at least 0.9, where 1 is the maximum; inactive means score below 0.9.
Could you please pick one outcome from this set? True (active), False (inactive)

COMPOUND	ASSIGNED_CATEGORY
COP(=O)(NC(C)=O)SC (configuration not stated)	False
CCc1cccc(CC)c1N(COC)C(=O)CCl	False
CN1COCN(Cc2cnc(Cl)s2)C1=N[N+](=O)[O-]	False
C#CC(C)(C)NC(=O)c1cc(Cl)cc(Cl)c1	False
S=C1NCCN1	False

Ask: Query: recorded result category for CN(C)C(=O)Nc1cccc(C(F)(F)F)c1 in this test
Result: False

* * *

# EXPERIMENTAL_PROTOCOL: ACEA_AR_antagonist_AUC_viability: ACEA Biosciences xCELLigence Real-Time Cell Analysis on Androgen Receptor Antagonism for Viability (AID 2283776);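 further: 22Rv1 human prostate cancer cells growing on impedance electrode plates; area under impedance growth curve at 80 h after dosing as viability; hits lower the growth signal relative to DMSO meaning cytotoxicity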
Records with an inconclusive call do not appear. Calls of active or inactive are those of the source. How the source made its calls: active means hit-call score of the fitted dose curve at least 0.9, where 1 is the maximum; inconclusive means response in the unintended direction; inactive means score below 0.9.
Output constraint: value belongs to 1 = active, 0 = inactive

Here are 6 molecules together with their reported answers.
MOLECULE	ASSIGNED_CATEGORY
Cc1ccn2nc(S(=O)(=O)Nc3c(F)cccc3F)nc2n1	0
O=[N+]([O-])c1cc(C(F)(F)F)c(Cl)c([N+](=O)[O-])c1Nc1ncc(C(F)(F)F)cc1Cl	1
CCCCSP(=O)(SCCCC)SCCCC	1
CC(Oc1cccc(Cl)c1)C(=O)O (configuration not stated)	0
COc1cccc(C(=O)NN(C(=O)c2cc(C)cc(C)c2)C(C)(C)C)c1C	1
COP(=O)(NC(C)=O)SC (configuration not stated)	0

Now let's try a different one.
Ask: Assay outcome for CCOP(=O)(SC(C)CC)N1CCSC1=O (configuration not stated) : what was it?
Result: 0

* * *

# EXPERIMENTAL_PROTOCOL: CCTE_Simmons_CellTiterGLO_HEK293T: Viability Assessment in CCTE's Assays for Thyroperoxidase (TPO) Inhibition, Simmons Lab (AID 2283665)
Records with an inconclusive call do not appear. Calls of active or inactive are those of the source. The calls were made as follows: active = hit-call score of the fitted dose curve at least 0.9, where 1 is the maximum; inconclusive = response in the unintended direction; inactive = score below 0.9.
Answer with one of the outcomes given here: Yes (active), No (inactive)

Reference set (2 entries):
MOLECULAR_STRING	ASSIGNED_CATEGORY
N#CSCSC#N	Yes
CSC1=N[C@@](C)(c2ccccc2)C(=O)N1Nc1ccccc1	No

API: the following record is the query input.
Ask: What is the recorded call for this compound in the test? CC1(C(=O)Nc2ccc(O)c(Cl)c2Cl)CCCCC1
Result: Yes

* * *

# Read-out: Thrombomodulin, THBD (gene 7056)
# EXPERIMENTAL_PROTOCOL: BSK_CASM3C_Thrombomodulin: BioMAP Diversity Plus: CASM3C Assay for Thrombomodulin Biomarker Activity (AID 2283051);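 further: thrombomodulin protein level measured by ELISA 24 h after dosing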
# TEST_PARAMETERS: primary human coronary artery smooth muscle cells; actives raise or lower the signal
Activity calls are given as the source filed them. The calls were made as follows: active = hit-call score of the fitted dose curve at least 0.9, where 1 is the maximum; inactive = score below 0.9.
Pick one and only one: active, inactive

Worked cases, answers included:
COMPOUND	ASSIGNED_CATEGORY
CN(C)[C@@H]1C(=O)C(C(N)=O)=C(O)[C@@]2(O)C(=O)C3=C(O)c4c(O)cccc4[C@@](C)(O)[C@H]3[C@H](O)[C@@H]12	inactive
COP(=O)(OC)C(O)C(Cl)(Cl)Cl (stereo not given)	inactive
CN(C)C(=O)Nc1cccc(C(F)(F)F)c1	inactive
C[N+]1(C)CCCCC1	inactive
CC(COc1ccc(Oc2ccccc2)cc1)Oc1ccccn1 (stereo not given)	inactive
CCCCSP(=O)(SCCCC)SCCCC	active

Ask: Recorded test outcome, item CCC(CC)Nc1c([N+](=O)[O-])cc(C)c(C)c1[N+](=O)[O-]
Result: active

Ask: Answer briefly: the call reported for COP(=O)(OC)SCn1c(=O)oc2cc(Cl)cnc21 in this assay.
Result: active

Ask: Could you kindly confirm the outcome this assay logged for CCOC(=O)COc1cc(-c2nn(C)c(OC(F)F)c2Cl)c(F)cc1Cl ?
Result: inactive

Ask: Assay outcome for O=C(O)c1cc(Oc2ccc(C(F)(F)F)cc2Cl)ccc1[N+](=O)[O-] : what was it?
Result: inactive

Ask: Returns: the outcome recorded for CCOP(=S)(OCC)OC(Cl)C(Cl)(Cl)Cl (stereo not given) in this assay.
Result: active

Ask: Each compound tested received a call. Report the one for CCOP(=O)(OCC)Oc1cc(C)nc(C(C)C)n1 .
Result: inactive

Ask: Write down the call the test reported for this compound. Item: Cc1ccn2nc(S(=O)(=O)Nc3c(F)cccc3F)nc2n1
Result: inactive

Ask: Give the logged outcome of this assay for the following compound: CNc1cnn(-c2cccc(C(F)(F)F)c2)c(=O)c1Cl
Result: inactive

Ask: Per the assay record, what outcome was assigned to CCC(=NOC/C=C/Cl)C1=C(O)CC(C2CCOCC2)CC1=O (stereo not given) ?
Result: inactive

Ask: Hi team, can someone confirm the assay call for CCOP(=S)(OCC)Oc1cc(C)nc(C(C)C)n1 ?
Result: inactive

* * *

# Read-out: glucuronosyltransferase (UGT1A1), UGT1A1 (gene 54658)
# EXPERIMENTAL_PROTOCOL: CLD_UGT1A1_48hr: CellzDirect (CLD) Gene Expression Assay for glucuronosyltransferase (UGT1A1) at 48 hours (AID 2283709);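 further: actives increase expression relative to DMSO so potency refers to induction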
Results filed as inconclusive are left out. The source made the active and inactive calls. Rule for the calls: active = hit-call score of the fitted dose curve at least 0.9, where 1 is the maximum; inconclusive = response in the unintended direction; inactive = score below 0.9.
Can you answer with just one of these options? 1 = active, -1 = inactive

Worked examples follow.
COMPOUND	ASSIGNED_CATEGORY
Cc1cc(C2CC2)nc(Nc2ccccc2)n1	-1
CC1=NNC(=O)N(/N=C/c2cccnc2)C1	-1
C#CCC1=C(C)C(OC(=O)C2C(C=C(C)C)C2(C)C)CC1=O (centres undefined)	1
CON=C(C(=O)OC)c1ccccc1CON=C(C)c1cccc(C(F)(F)F)c1	-1
CCCSP(=O)(OCC)SCCC	-1
CCOP(=S)(Oc1cnc(C(C)(C)C)nc1)OC(C)C (centres undefined)	1
CN(C)C(=O)Nc1cccc(C(F)(F)F)c1	-1
C[Si](Cn1cncn1)(c1ccc(F)cc1)c1ccc(F)cc1	-1
CC(COc1ccc(Oc2ccccc2)cc1)Oc1ccccn1 (centres undefined)	1
COc1ccc(C(=CC(=O)N2CCOCC2)c2ccc(Cl)cc2)cc1OC	-1

Ask: Test call for this compound, please: CSC1=N[C@@](C)(c2ccccc2)C(=O)N1Nc1ccccc1
Result: -1

Ask: Query: recorded result category for CC(Oc1cccc(Cl)c1)C(=O)O (centres undefined) in this test
Result: -1

Ask: Assay outcome for CNC(=O)ON=C(C)SC : what was it?
Result: -1

Ask: // outcome(item) with item = CNC(=O)Oc1cccc2c1OC(C)(C)O2
Result: -1
